Molecular target: α-1d adrenoreceptor (Rattus norvegicus, UniProt P23944)
Sequence (P23944 whole entry): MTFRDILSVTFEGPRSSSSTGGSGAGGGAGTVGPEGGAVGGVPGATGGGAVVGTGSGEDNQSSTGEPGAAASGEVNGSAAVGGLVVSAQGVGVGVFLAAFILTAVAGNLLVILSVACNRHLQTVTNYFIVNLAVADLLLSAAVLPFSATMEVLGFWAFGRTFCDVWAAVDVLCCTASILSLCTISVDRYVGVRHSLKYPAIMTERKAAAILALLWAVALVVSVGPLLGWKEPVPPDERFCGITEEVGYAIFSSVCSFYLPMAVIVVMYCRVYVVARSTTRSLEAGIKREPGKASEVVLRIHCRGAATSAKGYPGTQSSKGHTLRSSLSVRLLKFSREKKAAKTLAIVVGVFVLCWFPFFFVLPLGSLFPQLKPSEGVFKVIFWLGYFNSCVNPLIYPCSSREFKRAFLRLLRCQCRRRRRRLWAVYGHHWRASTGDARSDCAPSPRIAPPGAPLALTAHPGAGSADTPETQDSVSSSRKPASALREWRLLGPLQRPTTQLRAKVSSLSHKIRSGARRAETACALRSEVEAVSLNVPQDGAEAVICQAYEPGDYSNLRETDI
Test: biochemical
Format: binding
Settings: [3H]-prazosin radioligand; cloned receptor in LTK cell membranes; read-out: Radioligand Binding (Ki, nM) 1d (Rat)
Description: The cDNA clones encoding the α-1 adrenoreceptors (α-1a, α-1b, and α-1d) were obtained from TULCO (Triangle Universities Licensing Consortium, Research Triangle Park, NC) and inserted into the eukaryotic expression vector SnaB30. In this vector, expression of the adrenoreceptor gene is under the transcriptional control of an SV40 early promoter. […] Stable G418-resistant parental lines were generated, with successful expression of adrenoreceptor protein monitored using radioligand binding techniques. […]
Counter-ions that a name gives are not always drawn.
We begin with a simple list: items and their reported Ki.
Put your answer as a value accompanied by its unit after it.

Some compounds with known Ki results, for comparison:
COc1cccc2c1[C@@H]1CN(CCCCn3c(=O)[nH]c4c(sc5ncccc54)c3=O)C[C@H]1CO2 [Example 44, hydrochloride]
0.081 nM
COc1cccc2c1[C@@H]1CN(CCCCn3c(=O)[nH]c4c(sc5ccc(Cl)nc54)c3=O)C[C@@H]1CO2 [Example 37, hydrochloride]
0.195 nM

--- query ---
Query: Quick check: Ki on α-1d adrenoreceptor (Rattus norvegicus, UniProt P23944), item COc1cccc2c1[C@@H]1CN(CCCCn3c(=O)[nH]c4c(sc5ncc(Cl)nc54)c3=O)C[C@H]1CO2 [Example 13, hydrochloride] ?
Reply: 0.112 nM

====

Biological target: α-1b adrenoreceptor (Mesocricetus auratus, UniProt P18841)
Sequence (P18841 1-515): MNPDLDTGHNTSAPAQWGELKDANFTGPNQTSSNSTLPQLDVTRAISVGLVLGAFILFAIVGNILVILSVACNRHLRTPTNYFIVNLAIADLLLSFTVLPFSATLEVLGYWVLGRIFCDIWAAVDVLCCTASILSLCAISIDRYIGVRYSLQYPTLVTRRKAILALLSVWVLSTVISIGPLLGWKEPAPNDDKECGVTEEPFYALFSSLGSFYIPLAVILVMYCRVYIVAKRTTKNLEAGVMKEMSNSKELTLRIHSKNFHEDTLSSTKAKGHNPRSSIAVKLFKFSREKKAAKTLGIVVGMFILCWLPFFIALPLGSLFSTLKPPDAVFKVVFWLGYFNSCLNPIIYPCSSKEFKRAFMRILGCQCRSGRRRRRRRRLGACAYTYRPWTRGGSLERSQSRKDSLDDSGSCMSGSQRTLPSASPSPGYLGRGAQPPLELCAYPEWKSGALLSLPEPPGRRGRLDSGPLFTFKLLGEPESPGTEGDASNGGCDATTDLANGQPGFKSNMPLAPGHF
Test: biochemical
Type: binding, hamster
Conditions: read-out: Radioligand Binding (Ki, nM) 1b (Hamster)
Counter-ions that a name gives are not always drawn.
Quick rule for you: Ki under 90 nM gets Satisfied, anything else gets Not satisfied.

COc1cccc2c1[C@H]1CN(CCCCn3c(=O)[nH]c4c(sc5nccnc54)c3=O)C[C@@H]1CO2.Cl.Cl (racemic) [Example 74, dihydrochloride]
Satisfied
COc1cccc2c1OC[C@H]1CN(CCn3c(=O)[nH]c4c(sc5ccccc54)c3=O)C[C@@H]21.Cl (racemic) [Example 67, hydrochloride]
Not satisfied
COc1ccc2c(c1)[C@@H]1CN(CCCCn3c(=O)[nH]c4c(sc5nccnc54)c3=O)C[C@@H]1CO2 (racemic) [Example 76, hydrochloride]
Satisfied
COc1ccc2c(c1)[C@@H]1CN(CCCCn3c(=O)[nH]c4c(sc5ncccc54)c3=O)C[C@@H]1CO2 (racemic) [Example 75, dihydrochloride]
Satisfied

Query molecule follows.
Query: Item COc1cccc2c1[C@@H]1CN(CCCn3c(=O)[nH]c4c(sc5ccccc54)c3=O)C[C@@H]1CO2.Cl (racemic) [Example 66, hydrochloride] : Ki beneath 90 nM, strictly?
Reply: Not satisfied

The reported numbers originate from patent EP0942911B1.
